Value source: ChEMBL document CHEMBL5634084

Target: CDK2/Cyclin A2 (Homo sapiens, UniProt P24941)
Assay: Inhibition of CDK2/CyclinA2 (unknown origin) by ADP-Glo assay
Format: protein-complex assay
pIC50: −log10 of the molar value.

[
  {
    "smiles-representation": "COc1cc(O)c2c(=O)cc(-c3ccc(N4CCN(C)CC4)cc3)oc2c1C1=CCN(C)CC1",
    "target-desc": "CDK2/Cyclin A2 (Homo sapiens, UniProt P24941)",
    "pIC50": 6.27
  }
]

###

Biological target: CDK2/Cyclin A2 (Homo sapiens) (UniProt P24941+P20248)
Assay: Inhibition of CDK2/CyclinA2 (unknown origin) at 100 nM by ADP-Glo assay relative to control
Type: protein-complex assay
Active and inactive are the calls of the source. The calls are words filed in the database; no cut-off is given here.

[
  {
    "smiles-representation": "COc1cc(O)c2c(=O)cc(-c3ccc(N4CCN(C)CC4)cc3)oc2c1N1CCNCC1",
    "inhibition": "8.3%"
  },
  {
    "smiles-representation": "COc1cc(O)c2c(=O)cc(-c3ccc(N4CCN(C)CC4)cc3)oc2c1N1CCC(N2CCOCC2)CC1",
    "inhibition": "24.5%"
  },
  {
    "smiles-representation": "COc1cc(O)c2c(=O)cc(-c3ccc(N4CCN(C)CC4)cc3)oc2c1N1CCCCC1",
    "inhibition": "inactive"
  },
  {
    "smiles-representation": "COc1cc(O)c2c(=O)cc(-c3ccc(N4CCC(N5CCOCC5)CC4)cc3)oc2c1C1=CCN(C)CC1",
    "inhibition": "29%"
  },
  {
    "smiles-representation": "COc1cc(O)c2c(=O)cc(-c3ccc(N4CCC(N5CCOCC5)CC4)cc3)oc2c1N1CCNCC1",
    "inhibition": "4.7%"
  },
  {
    "smiles-representation": "COc1cc(O)c2c(=O)cc(-c3ccc(N4CCN(C)CC4)cc3)oc2c1[C@H]1CCN(C)[C@@H]1CO",
    "inhibition": "inactive"
  },
  {
    "smiles-representation": "COc1cc(O)c2c(=O)cc(-c3ccc(N4CCOCC4)cc3)oc2c1N1CCNCC1",
    "inhibition": "17.5%"
  },
  {
    "smiles-representation": "COc1cc(O)c2c(=O)cc(-c3ccc(N4CCN(C)CC4)cc3)oc2c1N1CCCC1",
    "inhibition": "inactive"
  },
  {
    "smiles-representation": "COc1cc(O)c2c(=O)cc(-c3ccc(N4CCN(C)CC4)cc3)oc2c1[C@H]1CCN(C)C[C@H]1O",
    "inhibition": "5.4%"
  },
  {
    "smiles-representation": "COc1cc(O)c2c(=O)cc(-c3ccc(N4CCN(C)CC4)cc3)oc2c1N1CCN(C)CC1",
    "inhibition": "23.5%"
  },
  {
    "smiles-representation": "COc1cc(O)c2c(=O)cc(-c3ccc(N4CCN(C)CC4)cc3)oc2c1C1=CCN(C)CC1",
    "inhibition": "16.7%"
  },
  {
    "smiles-representation": "COc1cc(O)c2c(=O)cc(-c3ccc(N4CCNCC4)cc3)oc2c1N1CCNCC1",
    "inhibition": "inactive"
  },
  {
    "smiles-representation": "COc1cc(O)c2c(=O)cc(-c3ccc(N4CCCC4)cc3)oc2c1N1CCNCC1",
    "inhibition": "4.7%"
  },
  {
    "smiles-representation": "COc1cc(O)c2c(=O)cc(-c3ccc(N4CCN(C)CC4)cc3)oc2c1Oc1c(C)n[nH]c1C",
    "inhibition": "14.2%"
  },
  {
    "smiles-representation": "COc1cc(O)c2c(=O)cc(-c3ccc(N4CCCNCC4)cc3)oc2c1C1=CCN(C)CC1",
    "inhibition": "32.5%"
  },
  {
    "smiles-representation": "COc1cc(O)c2c(=O)cc(-c3ccc(N4CCCNCC4)cc3)oc2c1N1CCNCC1",
    "inhibition": "18.9%"
  },
  {
    "smiles-representation": "COc1cc(O)c2c(=O)cc(-c3ccc(N4CCN(C)CC4)cc3)oc2c1",
    "inhibition": "inactive"
  },
  {
    "smiles-representation": "COc1cc(O)c2c(=O)cc(-c3ccc(N4CCNCC4)cc3)oc2c1C1=CCN(C)CC1",
    "inhibition": "inactive"
  },
  {
    "smiles-representation": "COc1cc(O)c2c(=O)cc(-c3ccc(N4CCN(C)CC4)cc3)oc2c1N1CCOCC1",
    "inhibition": "inactive"
  }
]
